System: UACC-62
Experiment: Growth inhibition of human UACC62 cells incubated for 48 hrs by sulforhodamine B assay
Type: functional
Settings: UACC-62, 48 h

[
  {
    "compound": "COc1ccc(C2=NN(C=O)C(c3cccc(Nc4ccnc5cc(Cl)ccc45)c3)C2)cc1 (stereo not given)",
    "unit tag": "nM",
    "GI50": 2410
  },
  {
    "compound": "COc1cc(C(=O)/C=C/c2cccc(Nc3ccnc4cc(Cl)ccc34)c2)cc(OC)c1OC",
    "unit tag": "nM",
    "GI50": 1030
  },
  {
    "compound": "COc1ccc(C(=O)/C=C/c2cccc(Nc3ccnc4cc(Cl)ccc34)c2)cc1",
    "unit tag": "nM",
    "GI50": 1190
  },
  {
    "compound": "O=CN1N=C(c2ccc(Cl)cc2)CC1c1cccc(Nc2ccnc3cc(Cl)ccc23)c1 (stereo not given)",
    "unit tag": "nM",
    "GI50": 1140
  },
  {
    "compound": "COc1cccc2c1C(=O)c1c(O)c3c(c(O)c1C2=O)C[C@@](O)(C(=O)CO)C[C@@H]3O[C@H]1C[C@H](N)[C@H](O)[C@H](C)O1",
    "unit tag": "nM",
    "GI50": 140
  }
]

* * *

Tested on: CCRF-CEM
Assay: Growth inhibition of human CCRF-CEM cells at 10 uM incubated for 48 hrs by sulforhodamine B assay
Type: functional, cell-based
The source made the active and inactive calls. No cut-off for these calls is given here.

[
  {
    "molecule": "COc1ccc(C(=O)/C=C/c2cccc(Nc3ccnc4cc(Cl)ccc34)c2)cc1",
    "growth inhibition (GI)": "Active"
  },
  {
    "molecule": "Clc1ccc(C2=NN(c3ccc(Cl)cc3)C(c3cccc(Nc4ccnc5cc(Cl)ccc45)c3)C2)cc1 (stereo not given)",
    "growth inhibition (GI)": "inactive"
  },
  {
    "molecule": "COc1ccc(C2=NN(c3ccc(Cl)cc3)C(c3cccc(Nc4ccnc5cc(Cl)ccc45)c3)C2)cc1 (stereo not given)",
    "growth inhibition (GI)": "inactive"
  },
  {
    "molecule": "COc1ccc(C2=NN(c3ccccc3)C(c3cccc(Nc4ccnc5cc(Cl)ccc45)c3)C2)cc1 (stereo not given)",
    "growth inhibition (GI)": "inactive"
  },
  {
    "molecule": "O=CN1N=C(c2ccc(Cl)cc2)CC1c1cccc(Nc2ccnc3cc(Cl)ccc23)c1 (stereo not given)",
    "growth inhibition (GI)": "Active"
  },
  {
    "molecule": "Clc1ccc(C2=NN(c3cc(Cl)cc(Cl)c3)C(c3cccc(Nc4ccnc5cc(Cl)ccc45)c3)C2)cc1 (stereo not given)",
    "growth inhibition (GI)": "inactive"
  },
  {
    "molecule": "COc1cc(C(=O)/C=C/c2cccc(Nc3ccnc4cc(Cl)ccc34)c2)cc(OC)c1OC",
    "growth inhibition (GI)": "Active"
  },
  {
    "molecule": "COc1ccc(C2=NN(C=O)C(c3cccc(Nc4ccnc5cc(Cl)ccc45)c3)C2)cc1 (stereo not given)",
    "growth inhibition (GI)": "Active"
  },
  {
    "molecule": "Clc1ccc(C2=NN(c3ccccc3)C(c3cccc(Nc4ccnc5cc(Cl)ccc45)c3)C2)cc1 (stereo not given)",
    "growth inhibition (GI)": "inactive"
  },
  {
    "molecule": "COc1cc(C2=NN(c3ccc(Cl)cc3)C(c3cccc(Nc4ccnc5cc(Cl)ccc45)c3)C2)cc(OC)c1OC (stereo not given)",
    "growth inhibition (GI)": "inactive"
  }
]

* * *

Tested on: MDA-MB-435
Test: Growth inhibition of human MDA-MB-435 cells incubated for 48 hrs by sulforhodamine B assay
Assay type: functional
Conditions: MDA-MB-435, 48 h
Hi! Could you tag entries with GI50 below 400 nM as met, and those at or above as not met? Much appreciated.

[
  {
    "molecule": "COc1cc(C(=O)/C=C/c2cccc(Nc3ccnc4cc(Cl)ccc34)c2)cc(OC)c1OC",
    "group label": "not met"
  },
  {
    "molecule": "COc1cccc2c1C(=O)c1c(O)c3c(c(O)c1C2=O)C[C@@](O)(C(=O)CO)C[C@@H]3O[C@H]1C[C@H](N)[C@H](O)[C@H](C)O1",
    "group label": "met"
  },
  {
    "molecule": "O=CN1N=C(c2ccc(Cl)cc2)CC1c1cccc(Nc2ccnc3cc(Cl)ccc23)c1 (stereo not given)",
    "group label": "met"
  },
  {
    "molecule": "COc1ccc(C2=NN(C=O)C(c3cccc(Nc4ccnc5cc(Cl)ccc45)c3)C2)cc1 (stereo not given)",
    "group label": "met"
  },
  {
    "molecule": "COc1ccc(C(=O)/C=C/c2cccc(Nc3ccnc4cc(Cl)ccc34)c2)cc1",
    "group label": "not met"
  }
]

* * *

Tested on: M14
Assay: Growth inhibition of human M14 cells incubated for 48 hrs by sulforhodamine B assay
Type: functional
Conditions: M14, 48 h
log10 of GI50 overview
parameter: log10 of GI50 (log10 of the value in nM)

[
  {
    "compound": "O=CN1N=C(c2ccc(Cl)cc2)CC1c1cccc(Nc2ccnc3cc(Cl)ccc23)c1 (stereo not given)",
    "measured number": 3.19
  },
  {
    "compound": "COc1cccc2c1C(=O)c1c(O)c3c(c(O)c1C2=O)C[C@@](O)(C(=O)CO)C[C@@H]3O[C@H]1C[C@H](N)[C@H](O)[C@H](C)O1 [DOXORUBICIN]",
    "measured number": 2.26
  },
  {
    "compound": "COc1ccc(C2=NN(C=O)C(c3cccc(Nc4ccnc5cc(Cl)ccc45)c3)C2)cc1 (stereo not given)",
    "measured number": 3.37
  },
  {
    "compound": "COc1ccc(C(=O)/C=C/c2cccc(Nc3ccnc4cc(Cl)ccc34)c2)cc1",
    "measured number": 3.20
  },
  {
    "compound": "COc1cc(C(=O)/C=C/c2cccc(Nc3ccnc4cc(Cl)ccc34)c2)cc(OC)c1OC",
    "measured number": 3.15
  }
]

* * *

Tested on: OVCAR-8
Test: Growth inhibition of human OVCAR8 cells at 10 uM incubated for 48 hrs by sulforhodamine B assay
Type: functional, cell-based
The source made the active and inactive calls. The rule behind the calls is not given here.

[
  {
    "compound": "COc1cc(C(=O)/C=C/c2cccc(Nc3ccnc4cc(Cl)ccc34)c2)cc(OC)c1OC",
    "growth inhibition (GI)": "Active"
  },
  {
    "compound": "Clc1ccc(C2=NN(c3cc(Cl)cc(Cl)c3)C(c3cccc(Nc4ccnc5cc(Cl)ccc45)c3)C2)cc1 (stereo not given)",
    "growth inhibition (GI)": "inactive"
  },
  {
    "compound": "Clc1ccc(C2=NN(c3ccccc3)C(c3cccc(Nc4ccnc5cc(Cl)ccc45)c3)C2)cc1 (stereo not given)",
    "growth inhibition (GI)": "inactive"
  },
  {
    "compound": "COc1cc(C2=NN(c3ccc(Cl)cc3)C(c3cccc(Nc4ccnc5cc(Cl)ccc45)c3)C2)cc(OC)c1OC (stereo not given)",
    "growth inhibition (GI)": "inactive"
  },
  {
    "compound": "COc1ccc(C(=O)/C=C/c2cccc(Nc3ccnc4cc(Cl)ccc34)c2)cc1",
    "growth inhibition (GI)": "Active"
  },
  {
    "compound": "COc1ccc(C2=NN(C=O)C(c3cccc(Nc4ccnc5cc(Cl)ccc45)c3)C2)cc1 (stereo not given)",
    "growth inhibition (GI)": "Active"
  },
  {
    "compound": "Clc1ccc(C2=NN(c3ccc(Cl)cc3)C(c3cccc(Nc4ccnc5cc(Cl)ccc45)c3)C2)cc1 (stereo not given)",
    "growth inhibition (GI)": "inactive"
  },
  {
    "compound": "COc1ccc(C2=NN(c3ccccc3)C(c3cccc(Nc4ccnc5cc(Cl)ccc45)c3)C2)cc1 (stereo not given)",
    "growth inhibition (GI)": "inactive"
  },
  {
    "compound": "COc1ccc(C2=NN(c3ccc(Cl)cc3)C(c3cccc(Nc4ccnc5cc(Cl)ccc45)c3)C2)cc1 (stereo not given)",
    "growth inhibition (GI)": "inactive"
  },
  {
    "compound": "O=CN1N=C(c2ccc(Cl)cc2)CC1c1cccc(Nc2ccnc3cc(Cl)ccc23)c1 (stereo not given)",
    "growth inhibition (GI)": "Active"
  }
]

* * *

log10(MIC50) by entry:
Test system: Cryptococcus neoformans
Experiment: Antifungal activity against Cryptococcus neoformans ATCC 32264 incubated for 48 hrs under dark condition by broth microdilution method
Type: functional
Conditions: ATCC 32264, 48 h
parameter: log10(MIC50) (log10 of the value in µg/mL)

[
  {
    "compound": "O=CN1N=C(c2ccc(Br)cc2)CC1c1cccc(Nc2ccnc3cc(Cl)ccc23)c1 (centres undefined)",
    "parameter": "log10(MIC50)",
    "measured number": 1.80
  },
  {
    "compound": "O=C(/C=C/c1cccc(Nc2ccnc3cc(Cl)ccc23)c1)c1ccc(Br)cc1",
    "parameter": "log10(MIC50)",
    "measured number": 2.10
  },
  {
    "compound": "Cc1ccc(C(=O)/C=C/c2cccc(Nc3ccnc4cc(Cl)ccc34)c2)cc1",
    "parameter": "log10(MIC50)",
    "measured number": 0.89
  },
  {
    "compound": "O=Cc1cccc(Nc2ccnc3cc(Cl)ccc23)c1",
    "parameter": "log10(MIC50)",
    "measured number": 2.40
  },
  {
    "compound": "CC(=O)N1N=C(c2ccc(Br)cc2)CC1c1cccc(Nc2ccnc3cc(Cl)ccc23)c1 (centres undefined)",
    "parameter": "log10(MIC50)",
    "measured number": 2.40
  },
  {
    "compound": "O=C(/C=C/c1cccc(Nc2ccnc3cc(Cl)ccc23)c1)c1ccccc1",
    "parameter": "log10(MIC50)",
    "measured number": 1.49
  }
]

Where do the numbers come from? From ChEMBL document CHEMBL4038284.
